Tested on: reference strains
protocolDetails: Antifungal activity, summary over reference strains
Format: cell-based
Parameters: key: (−) Means no antifungal activity; (±) low activity; (+) moderate activity; (++) high activity at the concentration mentioned
conditionLabel: Table 3
measuredProperty: Antifungal Activity (level)

- chemicalSmiles: "Cc1ccc2c(c1)c(=O)c1c(NCCCN(C)C)ccc3nnn2c31"
  measuredProperty: "Antifungal Activity (level)"
  result: "±"
- chemicalSmiles: "NCCNc1ccc2ncn3c4ccc(O)cc4c(=O)c1c23"
  measuredProperty: "Antifungal Activity (level)"
  result: "−"
- chemicalSmiles: "CCN(CC)CCNc1ccc2ncn3c4ccc(O)cc4c(=O)c1c23"
  measuredProperty: "Antifungal Activity (level)"
  result: "−"
- chemicalSmiles: "CN(C)CCCNc1ccc2nnn3c4ccc(O)cc4c(=O)c1c23"
  measuredProperty: "Antifungal Activity (level)"
  result: "−"

# ---- query compound ----
Incoming: Antifungal Activity (level) lookup needed for CCNCCNc1ccc2nnn3c4ccc(O)cc4c(=O)c1c23 , thanks.
Outgoing: −
